Readings of IC50 for the listed compounds
Biological target: Human Factor D (Homo sapiens (Human))
Assay: Human Factor D Assay
Type: biochemical
Conditions: Human Factor D assay of Example 8; Table 2; read-out: IC50

Sample records with IC50:
>>> print(df.to_string())
                                   compound  readoutname  observedvalue
0  CC(=O)c1nn(CC(=O)N2[C@@H]3C[C@@H]3C[C@H]2C(=O)Nc2cccc(OC(F)(F)F)c2F)c2ccc(-c3cnc4ccnn4c3)cc12 [Compound 239]         IC50      < 1000 nM
1  COCCOCCNC(=O)c1ncc(-c2ccc3c(c2)c(C(C)=O)cn3CC(=O)N2C[C@H](F)C[C@H]2C(=O)Nc2cccc(-c3ccccc3Cl)c2F)cn1 [Compound 212]         IC50      < 1000 nM

What value of measured IC50 is listed for CC(=O)c1cn(CC(=O)N2C[C@H](F)C[C@H]2C(=O)NCc2cccc(Cl)c2F)c2ccc(-c3cnc4cc(C)nn4c3)cc12 [Compound 299] ?
< 1000 nM

---

Molecular target: UniProt P00746
Experiment: Human Factor D Assay
Type: biochemical
Conditions: Human Factor D 80 nM, substrate Z-L-Lys-SBzl; read-out: IC50
pIC50: −log10 of the molar value.
readoutName: pIC50

>>> print(df.to_string())
                                   compound  readoutname  observedvalue
0  NC(=O)c1nn(CC(=O)N2[C@@H]3C[C@@H]3C[C@H]2C(=O)Nc2cccc(Br)n2)c2ccc(-c3cnc(N4CCCC4)nc3)cc12        pIC50         > 6.00
1  COc1cc(C)cc2c1OCCC2NC(=O)[C@@H]1C[C@@H](F)CN1C(=O)Cn1nc(C(N)=O)c2cc(-c3ccnnc3)ccc21 (stereo partly drawn)        pIC50         < 5.00
2  CC(=O)c1cn(CC(=O)N2C[C@H](F)C[C@H]2C(=O)NCc2cc(F)cc(Cl)c2)c2ccc(-c3ccnnc3)cc12        pIC50         > 6.00
3  CC(=O)c1cn(CC(=O)N2C[C@H](F)C[C@H]2C(=O)Nc2cncc(Br)c2)c2ccc(-c3ccnnc3)cc12        pIC50         > 6.00
4  NC(=O)c1nn(CC(=O)N2C[C@H](F)C[C@H]2C(=O)Nc2ccc3ncsc3c2)c2ccc(-c3ccnnc3)cc12        pIC50         < 5.00

Okay, now this compound:
# value lookup — system UniProt P00746, readout pIC50, item `CC(=O)c1cn(CC(=O)N2C[C@H](F)C[C@H]2C(=O)Nc2cccc(-c3ccccc3Cl)c2F)c2ccc(N3CCN(c4ncc(F)cn4)CC3)cc12`
> 6.00

---

Target: Human Factor D (Homo sapiens (Human), UniProt P00746)
Sequence (P00746 26-253): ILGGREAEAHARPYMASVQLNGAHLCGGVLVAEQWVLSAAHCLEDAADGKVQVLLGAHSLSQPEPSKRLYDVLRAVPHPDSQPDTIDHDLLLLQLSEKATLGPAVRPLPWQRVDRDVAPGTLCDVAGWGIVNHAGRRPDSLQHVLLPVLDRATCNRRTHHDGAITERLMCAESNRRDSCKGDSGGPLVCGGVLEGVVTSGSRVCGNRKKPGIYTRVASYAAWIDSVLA
Assay: Human Factor D Assay
Format: biochemical
Settings: Human Factor D, Table 3; read-out: IC50
pIC50: −log10 of the molar value.
readoutName: pIC50

Sample records with pIC50:
                                   compound  observedvalue
0  CC(=O)c1nn(CC(=O)N2[C@@H]3C[C@@H]3C[C@H]2C(=O)Nc2cccc(OC(F)(F)F)n2)c2ccc(-c3cnc4ccnn4c3)cc12 [Compound 671]         > 6.00
1  CC(=O)c1nn(CC(=O)N2[C@@H]3C[C@@H]3C[C@H]2C(=O)Nc2cccc(Br)n2)c2ccc(-c3ccc4nc(C)nn4c3)cc12 [Compound 660]         > 6.00

Okay, now this compound:
# value lookup — system Human Factor D (Homo sapiens (Human), UniProt P00746), readout pIC50, item CC(=O)c1nn(CC(=O)N2C[C@@H]3C[C@@H]3[C@H]2C(=O)Nc2nc(Br)ccc2C)c2ccc(-c3cnc(C)nc3)cc12 [Compound 605]
> 6.00
